# Study Target: recombinant homotrimeric HA, A/South Carolina/1/18 H1N1 (Influenza A virus A/South Carolina/1/18 (H1N1))
# Assay Method Text: trimeric HA microarray, transfection set 5
# Study Conditions: remark: other sources report otherwise
Kindly return 1.0 if reported Trimeric HA Binding RLU is no lower than 4000 RLU; return 0.0 if it is lower.

Please review the entries below; each comes with its answer.
Hi team, for TCN-552 (5249_I23) (antibody, V domains shown) VH: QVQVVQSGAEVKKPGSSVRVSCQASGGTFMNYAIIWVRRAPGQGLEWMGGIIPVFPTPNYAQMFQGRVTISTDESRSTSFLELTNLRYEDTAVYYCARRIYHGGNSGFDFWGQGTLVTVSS VL: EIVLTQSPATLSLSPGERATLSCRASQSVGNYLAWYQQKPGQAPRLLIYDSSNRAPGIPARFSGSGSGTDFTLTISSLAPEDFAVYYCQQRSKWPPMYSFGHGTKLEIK , is the recorded Trimeric HA Binding RLU at or above 4000 RLU?
1.0

Hi team, for TCN-544 (5082_A19) (antibody, V domains shown) VH: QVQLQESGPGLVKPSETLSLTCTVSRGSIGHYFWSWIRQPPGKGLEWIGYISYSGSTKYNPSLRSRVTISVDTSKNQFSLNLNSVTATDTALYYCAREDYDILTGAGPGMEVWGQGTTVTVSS VL: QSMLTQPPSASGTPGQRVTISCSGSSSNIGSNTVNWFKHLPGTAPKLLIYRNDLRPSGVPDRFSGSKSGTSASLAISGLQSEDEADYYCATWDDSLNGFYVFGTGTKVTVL , is the recorded Trimeric HA Binding RLU at or above 4000 RLU?
0.0

Hi team, for TCN-551 (5243_D01) (antibody, V domains shown) VH: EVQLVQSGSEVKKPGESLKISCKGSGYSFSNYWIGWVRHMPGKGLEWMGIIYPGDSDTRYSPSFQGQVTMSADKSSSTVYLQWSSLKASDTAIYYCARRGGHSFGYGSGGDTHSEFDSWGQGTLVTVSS VL: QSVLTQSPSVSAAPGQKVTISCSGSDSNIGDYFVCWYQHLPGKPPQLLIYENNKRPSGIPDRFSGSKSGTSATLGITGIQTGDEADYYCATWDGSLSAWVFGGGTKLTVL , is the recorded Trimeric HA Binding RLU at or above 4000 RLU?
1.0

Hi team, for TCN-504 (3251_K17) (antibody, V domains shown) VH: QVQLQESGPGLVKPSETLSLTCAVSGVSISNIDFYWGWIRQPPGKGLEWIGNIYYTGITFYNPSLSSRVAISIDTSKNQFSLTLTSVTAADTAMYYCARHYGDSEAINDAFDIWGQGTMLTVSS VL: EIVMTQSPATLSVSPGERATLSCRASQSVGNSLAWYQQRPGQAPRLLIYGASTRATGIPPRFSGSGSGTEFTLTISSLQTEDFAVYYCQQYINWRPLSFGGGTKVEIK , is the recorded Trimeric HA Binding RLU at or above 4000 RLU?
1.0

Now let's try a different one.
Hi team, for TCN-545 (5082_I15) (antibody, V domains shown) VH: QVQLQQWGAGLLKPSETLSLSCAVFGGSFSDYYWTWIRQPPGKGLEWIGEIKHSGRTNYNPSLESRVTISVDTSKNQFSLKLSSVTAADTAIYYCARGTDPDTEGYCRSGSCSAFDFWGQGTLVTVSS VL: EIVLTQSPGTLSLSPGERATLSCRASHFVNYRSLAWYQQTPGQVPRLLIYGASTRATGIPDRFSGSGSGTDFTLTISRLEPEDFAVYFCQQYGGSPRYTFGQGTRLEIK , is the recorded Trimeric HA Binding RLU at or above 4000 RLU?
0.0
